TEST DETAILS: PAMPA (parallel artificial membrane permeability assay)
Format: in vitro ADME
TEST SETTINGS: membrane permeation rate (Pe); 50 mM MOPSO buffer pH 6.5 with 5.0% glycocholic acid, 37° C., 18 hours
Positions of bridges follow the written chain, without caps; N, C: chain ends. Non-standard residues stand in square brackets, D forms with d. Residues, ends and D or L forms follow the SMILES beside them. *: point of attachment. NMePhe(3-Cl) = CN[C@@H](Cc1cccc(Cl)c1)C(=O)O; NMeF = CN[C@@H](Cc1ccccc1)C(=O)O; NMeI = CC[C@H](C)[C@H](NC)C(=O)O; NMeL = CN[C@@H](CC(C)C)C(=O)O; NMeA = CN[C@@H](C)C(=O)O; Piperidide = C1CCN(*)CC1; Sar = CNCC(=O)O
Parameter iPAMPA Pe: see the listing below.

MOLECULE	RESULT TYPE	REPORTED
CC[C@H](C)[C@@H]1NC(=O)[C@H](C(C)C)NC(=O)[C@H](Cc2ccccc2)N(C)C(=O)[C@H](C(C)C)NC(=O)[C@H](CC(C)C)N(C)C(=O)[C@H](C)NC(=O)C[C@@H](C(=O)N(C)[C@@H](Cc2ccccc2)C(=O)N(C)[C@@H](CC(C)C)C(=O)N[C@H](C(=O)N(C)[C@@H](CC(C)C)C(=O)N[C@H](C(=O)N2CCCCC2)[C@@H](C)CC)[C@@H](C)O)NC1=O [DP-913] (A[NMeL]V[NMeF]VID[NMeF][NMeL]T[NMeL]I-Piperidide; lactam N-7)	iPAMPA Pe	1.0E−07
CC[C@H](C)[C@@H]1NC(=O)[C@H](Cc2ccccc2)NC(=O)[C@H](CC(C)C)NC(=O)[C@@H](C)NC(=O)C[C@@H](C(=O)N2CCCCC2)NC(=O)[C@H](Cc2ccccc2)NC(=O)[C@H](CC(C)C)NC(=O)[C@H]([C@@H](C)O)NC(=O)[C@H](Cc2ccccc2)NC(=O)[C@H](CC(C)C)NC1=O [DP-515] ([dA]LFILFTLFD-Piperidide; lactam N-10)	iPAMPA Pe	1.0E−07
CC[C@H](C)[C@H](NC(=O)[C@H](Cc1ccccc1)N(C)C(=O)[C@@H]1CC(=O)N[C@@H](C)C(=O)N[C@@H](CC(C)C)C(=O)N(C)[C@@H]([C@@H](C)CC)C(=O)N[C@@H](C(C)C)C(=O)N(C)[C@@H](Cc2ccccc2)C(=O)N[C@@H](CC(C)C)C(=O)N(C)[C@@H](Cc2ccccc2)C(=O)N1)C(=O)N1CCCCC1 [DP-573] (AL[NMeI]V[NMeF]L[NMeF]D[NMeF]I-Piperidide; lactam N-8)	iPAMPA Pe	1.0E−07
CC[C@H](C)[C@H](NC(=O)[C@H](CC(C)C)N(C)C(=O)[C@H](CC(C)C)N(C)C(=O)[C@H](Cc1ccccc1)N(C)C(=O)[C@@H]1CC(=O)N[C@H](C(C)C)C(=O)N(C)[C@@H](Cc2cccc(Cl)c2)C(=O)N(C)[C@@H](C)C(=O)N(C)[C@@H](CC(C)C)C(=O)N[C@@H]([C@@H](C)O)C(=O)N(C)[C@@H](CC(C)C)C(=O)N1)C(=O)N1CCCCC1 [DP-916] ([dV][NMePhe(3-Cl)][NMeA][NMeL]T[NMeL]D[NMeF][NMeL][NMeL]I-Piperidide; lactam N-7)	iPAMPA Pe	1.0E−07

Next molecule, iPAMPA Pe to be filled in.
Query string: What does the data say about its iPAMPA Pe? Entry: CC[C@H](C)[C@@H]1NC(=O)[C@H](CC(C)C)N(C)C(=O)CN(C)C(=O)[C@H]([C@@H](C)O)NC(=O)[C@H](C)N(C)C(=O)C[C@@H](C(=O)N[C@@H](C)C(=O)N2CCCCC2)NC(=O)[C@H](CC(C)C)N(C)C(=O)[C@H](Cc2ccccc2)N(C)C(=O)[C@H](CC(C)C)N(C)C1=O [DP-664] ([NMeA]T[Sar][NMeL]I[NMeL][NMeF][NMeL]DA-Piperidide; lactam N-9)
Result string: 7.0E−05
